tested on: PNT2 cells; assay: MTT assay, PNT2 cells; type: cell-based, human; details: non-cancer cells; 48 h of treatment; mean ± SD
measurement name: IC50
Reply with the number and its unit after it.

Notebook: N.N.[Cl][Pt][Cl] [Cis, Cisplatin, reference compound] , IC50 read as 9.41 µM

====

test system: MRC-9 cells; assay: MTT assay, MRC-9 cells; format: cell-based, human; conditions: Homo sapiens, MRC9; non-cancer cells; 48 h of treatment; mean ± SD
Property: pIC50; scope: individual compounds
Worth noting: pIC50 values are minus log10 of concentrations stated in mol/L.

1. O=C1c2ccccc2-[n+]2ccc3c([nH]c4cc(Br)ccc43)c21: 4.69
2. O=C1c2cc(Br)ccc2-[n+]2ccc3c([nH]c4ccc(Br)cc43)c21.[Cl-]: 5.30
3. CCc1c[n+]2c(c3[nH]c4ccccc4c13)C(=O)c1ccccc1-2.[Cl-]: 5.84
4. O=C1c2ccccc2-[n+]2c(-c3ccccc3)cc3c([nH]c4ccccc43)c21.[Cl-]: 6.07

The recorded pIC50 for entry O=C1c2cc(Br)ccc2-[n+]2ccc3c([nH]c4ccccc43)c21.[Cl-] equals 5.37

The compound identified as O=C1c2ccccc2-[n+]2ccc3c([nH]c4ccc(Br)cc43)c21.[Cl-] registered its pIC50 at 4.81

// sample O=C1c2ccccc2-[n+]2ccc3c([nH]c4ccccc43)c21 , its pIC50 was 6.05

====

test system: 22Rv1 cells; assay: Cell cycle progression, flow cytometry with PI staining; format: cell-based, human; details: treated at IC50 (MTT assay) for 48 h
measurement name: Cell cycle arrest (at IC50)

1. O=C1c2ccccc2-[n+]2c(-c3ccccc3)cc3c([nH]c4ccccc43)c21.[Cl-]: No
2. O=C1c2cc(Br)ccc2-[n+]2ccc3c([nH]c4ccc(Cl)cc43)c21.[Cl-]: No

====

Recorded % of sub-G1 apoptotic cells (at IC50) for the following molecules
tested on: 22Rv1 cells; experiment: DNA fragmentation (apoptosis, sub-G1), flow cytometry with PI staining; assay type: cell-based, human; settings: treated at IC50 (MTT assay) for 48 h, mean ± SD

The cases that follow already have their % of sub-G1 apoptotic cells (at IC50) on record.
1. O=C1c2ccc(Br)cc2-[n+]2ccc3c([nH]c4ccccc43)c21 [Compound 3, 3-bromofascaplysin]: 23.3±9.19%
2. O=C1c2ccccc2-[n+]2c(-c3ccccc3)cc3c([nH]c4ccccc43)c21.[Cl-] [Compound 20]: 16.4±2.47%
3. O=C1c2cc(Br)ccc2-[n+]2ccc3c([nH]c4ccc(I)cc43)c21.[Cl-] [Compound 11]: 13.1±2.86%
4. O=C1c2ccc(Br)cc2-[n+]2ccc3c([nH]c4cc(Br)ccc43)c21 [Compound 8, 3,10-dibromofascaplysin]: 3.83±0.442%
5. O=C1c2cc(Br)ccc2-[n+]2ccc3c([nH]c4ccccc43)c21.[Cl-] [Compound 4]: 8.83±0.7%

Record O=C1c2cc(Br)ccc2-[n+]2ccc3c([nH]c4ccc(Cl)cc43)c21.[Cl-] [Compound 12] / 22Rv1 cells, % of sub-G1 apoptotic cells (at IC50) recorded as 6.95±0.901%

Known value: 22Rv1 cells % of sub-G1 apoptotic cells (at IC50) of the molecule O=C1c2ccccc2-[n+]2ccc3c([nH]c4ccccc43)c21 [Compound 1, fascaplysin] equals 11.43±0.843%

Result for O=C1c2cc(Br)ccc2-[n+]2ccc3c([nH]c4c(Cl)cc(Cl)cc43)c21.[Cl-] [Compound 14] , tested on 22Rv1 cells, % of sub-G1 apoptotic cells (at IC50): 23.6±1.2%

Tested system 22Rv1 cells; % of sub-G1 apoptotic cells (at IC50) recorded for O=C1c2cc(Br)ccc2-[n+]2ccc3c([nH]c4c(Br)cc(Br)cc43)c21.[Cl-] [Compound 13] was 27.6±7.52%

Lab note: molecule Cc1c[n+]2c(c3[nH]c4ccccc4c13)C(=O)c1ccccc1-2.[Cl-] [Compound 18] tested on 22Rv1 cells; recorded % of sub-G1 apoptotic cells (at IC50) was 23.1±3.42%

Sample O=C1c2ccccc2-[n+]2ccc3c([nH]c4ccc(I)cc43)c21.[Cl-] [Compound 7] , system: 22Rv1 cells. Its % of sub-G1 apoptotic cells (at IC50) is 6.3±0.906%

The measured % of sub-G1 apoptotic cells (at IC50) that O=C1c2ccccc2-[n+]2cc(-c3ccccc3)c3c([nH]c4ccccc43)c21.[Cl-] [Compound 16] showed for 22Rv1 cells is 7±1.4%

The measured % of sub-G1 apoptotic cells (at IC50) that O=C1c2ccc(Br)cc2-[n+]2ccc3c([nH]c4cccc(Br)c43)c21.[Cl-] [Compound 9] showed for 22Rv1 cells is 28.7±3.49%
